# inhibition values compiled below
# EXPERIMENTAL_SYSTEM: Sodium-dependent dopamine transporter (Homo sapiens, UniProt Q01959)
# Sequence (Q01959 whole entry): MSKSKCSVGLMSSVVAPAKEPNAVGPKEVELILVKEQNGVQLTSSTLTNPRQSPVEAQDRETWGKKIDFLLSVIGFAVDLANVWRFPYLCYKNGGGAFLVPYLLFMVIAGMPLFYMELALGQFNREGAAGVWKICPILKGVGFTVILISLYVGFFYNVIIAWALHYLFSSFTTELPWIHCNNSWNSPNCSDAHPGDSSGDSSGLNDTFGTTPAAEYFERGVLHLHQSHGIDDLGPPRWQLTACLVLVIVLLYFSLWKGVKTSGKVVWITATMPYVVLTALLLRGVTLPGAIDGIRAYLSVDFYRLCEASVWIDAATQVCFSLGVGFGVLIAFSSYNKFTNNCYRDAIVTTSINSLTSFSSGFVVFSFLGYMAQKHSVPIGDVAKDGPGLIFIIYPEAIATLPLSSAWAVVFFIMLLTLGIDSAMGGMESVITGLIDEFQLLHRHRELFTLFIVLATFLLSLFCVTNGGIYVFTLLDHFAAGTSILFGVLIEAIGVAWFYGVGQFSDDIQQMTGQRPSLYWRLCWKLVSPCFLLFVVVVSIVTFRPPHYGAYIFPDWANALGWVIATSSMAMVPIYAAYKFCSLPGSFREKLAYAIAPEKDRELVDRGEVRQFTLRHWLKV
# ASSAY_NOTES: Inhibition of [3H]-DA uptake in human dopamine transporter expressed in CHO cells at 10 uM by scintillation counting
Answer by giving the amount and then stating its unit.

[[record]]
compound = "Cc1ccc(C(CCN(C)C)N2CCOCC2)cc1 (stereo not drawn)"
outcome_measure = "inhibition"
assay_result = "25.8%"

[[record]]
compound = "CN(CCC(c1ccc(Cl)c(Cl)c1)N1CCOCC1)Cc1ccccc1 (stereo not drawn)"
outcome_measure = "inhibition"
assay_result = "3.4%"


Value lookup for inhibition; key = CN(C)CCC(c1ccc(Cl)c(Cl)c1)N1CCNCC1 (stereo not drawn) 80.1%
